Data provenance: paper PMC6669600

ASSAYED TARGET: N36 (gp41 NHR-derived target mimic peptide) (Human immunodeficiency virus type 1 group M subtype B)
MEASUREMENT PROTOCOL: CD spectroscopy of inhibitor complexed with N36
Assay type: binding, HIV-1
CONDITION LABEL: α-helical content of complex, each peptide 10 μM in PBS pH 7.2, 20 C, [θ]222; repeated two times, representative data
EXPERIMENTAL ENDPOINT: CD data (with N36) Helix (%)

1) Ac-MTWEEWDKKIEEYTKKIEELIKK-NH2 [MT-SC21EK] :: 83.9%
2) Ac-MTWEEWDKKIEEYTKKIEELIKKSEEQQK-NH2 [MT-SC27EK] :: 87.4%
3) Ac-WEEWDKKIEEYTKKIEELIKKSEEQQKKNEKEL-NH2 [SC33EK] :: 94.1%
4) Ac-MTWEEWDKKIEEYTKKIEELIKKS-NH2 [MT-SC22EK] :: 84.6%
5) Ac-WEEWDKKIEEYTKKIEELI-NH2 [SC19EK] :: 80.3%
6) Ac-MTWEEWDKKIEEYTKKIEELIKKSEEQQKKNE-NH2 [MT-SC30EK] :: 92.6%
7) Ac-WEEWDRKIEEYTKKIEELIKKSQNQQIDL-NH2 [WQ-IDL, reference compound] :: 87.8%
8) Ac-MTWEEWDKKIEEYTKKIEELI-NH2 [MT-SC19EK] :: 84.8%
9) Ac-MTWEEWDKKIEEYTKKIEELIKKSEEQ-NH2 [MT-SC25EK] :: 84.9%
10) Ac-WEEWDKKIEEYTKKIEELIKKS-NH2 [SC22EK] :: 85.5%
11) Ac-WEEWDKKIEEYTKKIEELIKKSEEQQK-NH2 [SC27EK] :: 85.7%
12) Ac-MTWEEWDKKIEEYTKKIEELIK-NH2 [MT-SC20EK] :: 82%
13) Ac-MTWEEWDKKIEEYTKKIEELIKKSE-NH2 [MT-SC23EK] :: 84.1%
14) Ac-MTWEEWDRKIEEYTKKIEELIKKSQNQQEKN-NH2 [MT-WQ-EKN] :: 90.6%
15) Ac-WEEWDKKIEEYTKKIEELIKKSEE-NH2 [SC24EK] :: 79.9%
16) Ac-MTWEEWDKKIEEYTKKIEELIKKSEEQQKKNEKEL-NH2 [MT-SC33EK] :: 93.8%
17) Ac-WEEWDKKIEEYTKKIEELIKKSEEQQKK-NH2 [SC28EK] :: 87.7%

----------
ASSAYED TARGET: N36 (gp41 NHR-derived target mimic peptide) (Human immunodeficiency virus type 1 group M subtype B, UniProt P04578)
Sequence (P04578 546-581): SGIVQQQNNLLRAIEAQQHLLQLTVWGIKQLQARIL
MEASUREMENT PROTOCOL: CD spectroscopy of inhibitor complexed with N36
Format: binding, HIV-1
CONDITION LABEL: α-helical content of complex, each peptide 10 μM in PBS pH 7.2, 20 C, [θ]222; repeated two times, representative data
Classify as follows. Reported CD data (with N36) Helix (%) greater than or equal to 90%: YES. Reported CD data (with N36) Helix (%) below: NO.

1) Ac-WEEWDKKIEEYTKKIEELIKKSEEQQ-NH2 [SC26EK] :: NO
2) Ac-WEEWDKKIEEYTKKIEELIKKSEEQQKKNE-NH2 [SC30EK] :: YES
3) Ac-MTWEEWDKKIEEYTKKIEELIKKSEE-NH2 [MT-SC24EK] :: NO
4) Ac-WEEWDKKIEEYTKKIEELIKKSEEQQKKNEKE-NH2 [SC32EK] :: YES
5) Ac-MTWEEWDKKIEEYTKKIEEL-NH2 [MT-SC18EK] :: NO
6) Ac-WEEWDKKIEEYTKKIEELIKKSE-NH2 [SC23EK] :: NO
7) Ac-WEEWDKKIEEYTKKIEELIK-NH2 [SC20EK] :: NO
8) Ac-MTWEEWDRKIEEYTKKIEELIKKSQNQQIDL-NH2 [MT-WQ-IDL, reference compound] :: NO
9) Ac-MTWEEWDKKIEEYTKKIEELIKKSEEQQKK-NH2 [MT-SC28EK] :: NO
10) Ac-WEEWDKKIEEYTKKIEELIKK-NH2 [SC21EK] :: NO
11) Ac-MTWEEWDKKIEEYTKKIEELIKKSEEQQ-NH2 [MT-SC26EK] :: NO
12) Ac-WMEWDREINNYTSLIHSLIEESQNQQEKAEQELL-NH2 [C34N145A] :: NO
13) Ac-WEEWDKKIEEYTKKIEELIKKSEEQ-NH2 [SC25EK] :: NO

----------
Listed below: CD data (with N36) Helix (%) values for each entry.
ASSAYED TARGET: N36 (gp41 NHR-derived target mimic peptide) (Human immunodeficiency virus type 1 group M subtype B)
MEASUREMENT PROTOCOL: CD spectroscopy of inhibitor complexed with N36
Type: binding, HIV-1
CONDITION LABEL: α-helical content of complex, each peptide 10 μM in PBS pH 7.2, 20 C, [θ]222; repeated two times, representative data
EXPERIMENTAL ENDPOINT: CD data (with N36) Helix (%)

1) Ac-WEEWDKKIEEYTKKIEELIKKSEEQQKKNEKELK-NH2 [SC34EK, reference compound] :: 92.6
2) Ac-MTWEEWDKKIEEYTKKIEELIKKSEEQQKKNEKE-NH2 [MT-SC32EK] :: 91.8
3) Ac-WEEWDKKIEEYTKKIEELIKKSEEQQKKNEK-NH2 [SC31EK] :: 91.4
4) Ac-MTWEEWDKKIEEYTKKIEELIKKSEEQQKKNEKELK-NH2 [MT-SC34EK] :: 92
5) Ac-WEEWDRKIEEYTKKIEELIKKSQNQQEKN-NH2 [WQ-EKN] :: 89.5
6) Ac-MTWEEWDKKIEEYTKKIEELIKKSEEQQKKNEK-NH2 [MT-SC31EK] :: 92.4
7) Ac-WEEWDKKIEEYTKKIEELIKKSEEQQKKN-NH2 [SC29EK, reference compound] :: 88.9
8) Ac-MTWEEWDKKIEEYTKKIEELIKKSEEQQKKN-NH2 [MT-SC29EK] :: 92
